Just for reference, ChEMBL document CHEMBL3988442 is where these values come from.

Provide the reported Percent Effect of each item.
- Test system: Wolbachia pipientis
- experimentDescription: Anti-Wolbachia Cell-Based Screen
- Type: functional
- Set-up: scale not given: in the data most compounds retested in dose-response had high values
- conditionInfo: 5 µM
Out of some 48,000 compounds screened, about 13,000 (27%) showed an effect of 50% or more. The list shows a part of the results.
Output spec: scalar in %, unitless text.

Form: molecule = Cc1[nH]ccc1C(=O)N1CCCN1C(=O)OC(C)(C)C ; Percent Effect = -3.846

Entry COCC(=O)N1CCC(C)(c2cc(O)[nH]n2)CC1 — recorded Percent Effect = 115.4

Lookup result for O=C1CC2(CCN(Cc3ncc[nH]3)CC2)CN1Cc1ccc(Cl)cc1 ; measured Percent Effect: 9.235

Notebook: CC(CNC(=O)N1CCSCC1)Cc1cccs1 (stereo unspecified) , Percent Effect read as 19.49

CCCn1nc(C(=O)NCCc2nnc3n2CCC3)ccc1=O has a reported Percent Effect of 5.324

Notebook: Cc1ccc(F)cc1C(=O)NCc1ccc(C(=O)O)o1 , Percent Effect read as 7.122

Value of Percent Effect reported for the molecule CC(CCc1ccc(O)cc1)NC1CCN(C(=O)C(C)C)CC1 (stereo unspecified) is 2.314

The reported value for CCc1nc(C)c(C(=O)NCCNc2ncnc3sccc23)s1 in terms of Percent Effect is -61.04

Query CN1CCN(c2nccc(-c3cncnc3C3CCCCC3)n2)CC1 yields Percent Effect of 58.46

// recorded Percent Effect for Cc1[nH]ccc1C(=O)N1CCOCC12CCCC2 : 102.2

Summary for this molecule, O=C1CC2(CCN(CCCO)CC2)CN1Cc1ccc(F)c(F)c1 : Percent Effect is 111.9

The measured Percent Effect associated with CC(C)C(=O)N1CCC(C)(c2cc(O)[nH]n2)CC1 reads 136.2

# Percent Effect of Cc1nn(C)cc1-c1ccnc(N2CCN(c3cnccn3)CC2)n1 = 17.52

Note to self: Percent Effect recorded for O=C1CC2(CCN(Cc3ncc[nH]3)CC2)CN1Cc1cc(F)cc(F)c1 was 5.031

Lab note: O=C(c1ccc[nH]1)N1CCC2(CC1)COCCN(c1nccs1)C2 gave Percent Effect of 4.422

The measured Percent Effect associated with CCC(O)CN1CCN(C(=O)c2cccn2Cc2cccs2)CC1 (stereo unspecified) reads -10.05

Percent Effect for O=C(c1cccn1Cc1cccs1)N1CCSCC1 is 87.27

Entry O=C(c1cc[nH]n1)N(Cc1cccc(O)c1)CC1CC1 — recorded Percent Effect = -5.824

Record summary for NC(=O)C1CCN(C(=O)c2cccn2Cc2cccs2)C1 (stereo unspecified) : reported Percent Effect = 92.97

// sample Cc1nccc(-c2ccccc2)c1C(=O)N1CC[C@](C)(O)[C@H](C)C1 , its Percent Effect was -6.254

Field Percent Effect (entry O=C1CCC2(CCN(Cc3cc(F)cc(F)c3)CC2)CN1CCO ) reads -11.07

---

- Test system: Wolbachia pipientis
- experimentDescription: Anti-Wolbachia Cell-Based Screen
- Type: functional
- Design: scale not given: in the data most compounds retested in dose-response had high values
- conditionInfo: 5 µM
Hit rate of the full screen: of about 48,000 compounds, about 13,000 (27%) showed an effect of 50% or more. This is one part of the list.
So I've got a bunch of compounds here, and I need their Percent Effect values.

What the record says about COc1ccc(CNc2ncc(-c3cc(C)no3)c(C(C)C)n2)cc1 : Percent Effect is 97.64%

Lab note: Cn1cnc(S(=O)(=O)NCCN2CCCCCC2=O)c1Cl gave Percent Effect of -2.808%

For this compound ( CCS(=O)(=O)CC(C)N(C)C(=O)NCCc1cccc(F)c1F (centres undefined) ), measured Percent Effect is -8.987%

In plain terms, O=C(CCNCc1cc(O)c2cc(F)ccc2n1)N1CCCC1 has a documented Percent Effect of 24.8%

Quick note, Percent Effect for CC(C)N1CCCC1c1csc(N)n1 (centres undefined) landed at 125.7%

Value of Percent Effect reported for the compound CC(CNC(=O)c1ccc(Cl)cc1I)N1CCCC1 (centres undefined) is -14.44%

Form field Percent Effect, entry CN(C)C(=O)C1CCc2nnc(CNC(=O)c3ccc(Cl)cc3Cl)n21 (centres undefined) : 114.2%

// Percent Effect lookup, compound = COCc1cc(NCc2ccccc2OC)ncn1 , result: -8.883%

// Percent Effect value for COCCCNC(=O)NCc1nc(C)c(C)o1 : 1.858%

// field: Percent Effect; key: O=C(Cc1cccc(O)c1)NC1CCN(c2cccc(Cl)c2)C1 (centres undefined) ; value = 1.358%

Documented Percent Effect of CC(C)c1nn(C)c(N(C)C)c1CNCc1ccc2c(c1)OCO2 : -1.149%

The recorded Percent Effect for entry Cc1ccc(CN(C)Cc2ncc(C(C)(C)C)o2)o1 equals 106.2%

Memo: CCN1CCN(S(=O)(=O)c2ncn(C)c2Cl)CC1 , reported Percent Effect: 25.01%

Entry Cc1cc(CN(C)Cc2ncc(-c3ccccc3)o2)no1 , Percent Effect reported as 85.66%

response.value for Cc1ccc(N2CCCC(NCc3sccc3C)C2)nn1 (centres undefined) (field: Percent Effect) = 101%

Entry CC(C)N(C)Cc1nnc2n1CCN(Cc1ccncc1)CC2.O=C(O)C(F)(F)F.O=C(O)C(F)(F)F.O=C(O)C(F)(F)F ; Percent Effect = -8.532%

Reported Percent Effect of CC(C)c1nc(CN(C)C(=O)Cn2nc3ccccc3n2)no1 : -13.5%

CN(Cc1ncc(-c2ccccc2)o1)CC1CCCN1c1cccnn1 (centres undefined) has a reported Percent Effect of 1.26%

What the record says about Cc1ccn(-c2ccccc2NCc2ccccn2)n1 : Percent Effect is 5.866%

The reported value for Cc1ccc(N2CCCC(NCc3cnc(C)s3)C2)nn1 (centres undefined) in terms of Percent Effect is 95.67%

Field Percent Effect (entry COc1cc(C)ccc1OCc1nc(C(=O)N2CCCNC(=O)C2)co1 ) reads 5.427%

Sure, the documented Percent Effect for COc1ccc(CNC(C)c2cnc3cc(C)nn3c2C)cc1 (centres undefined) is 8.81%

The recorded Percent Effect for entry Cc1nnc(-c2cccc(N3CCC(NC4CCSC4)CC3)c2)s1 (centres undefined) equals -9.983%

// recorded Percent Effect for CC(C)N1CCc2ncn(C(C)C)c2C1C(=O)N1CCN(C)CC1 (centres undefined) : -12.1%

# Percent Effect (compound: CC(C)C(NC(=O)c1ccc(Cl)cc1Cl)C(=O)Nc1cnn(C)c1 (centres undefined) ) is 12.86%

Lab book: Percent Effect of Clc1cccc(N2CCC(NCc3cc[nH]n3)C2)c1 (centres undefined) noted as -6.457%

Percent Effect recorded for this compound, Cc1cc(CN(C)Cc2ncc(-c3cccs3)o2)no1 , is -12.35%

Percent Effect reading for O=C(O)C(F)(F)F.O=C(O)C(F)(F)F.c1cncc(COCc2nnc3n2CCN(CC2CC2)C3)c1 : -1.478%

The recorded Percent Effect for CCS(=O)(=O)NCCNCc1ccc(Cl)c2cccnc12 is 1.555%

Summary for this compound, CCn1cnnc1CNC(=O)c1ccc(Cl)cc1F : Percent Effect is 9.197%

The value of Percent Effect measured for the compound Cc1cccc(CN(Cc2ccccn2)Cc2ncc(C(C)(C)C)o2)c1 turned out to be -46.43%

// recorded Percent Effect for Cc1ccc(-c2cccc(N3CCC(NC4CCOCC4)CC3)c2)cc1 : 106.4%

Entry under test: COc1ccccc1CNc1ncc(-c2cc(C)no2)c(C(C)C)n1 . Its Percent Effect was 92%

Memo: CN(C)C(=O)COCc1nnc2n1CCN(Cc1ccsc1)C2.O=C(O)C(F)(F)F , reported Percent Effect: 3.675%

Value of measured Percent Effect for the entry CN(C)CCOCc1nnc2n1CCN(Cc1ccsc1)C2.O=C(O)C(F)(F)F.O=C(O)C(F)(F)F : -13.86%

The recorded Percent Effect for entry O=C(NCC(=O)N1CCCCC1)c1ccc(Cl)cc1I equals -12.84%

// O=C(NCc1nnc2n1C(C(=O)NC1CC1)CC2)c1ccc(Cl)cc1Cl (centres undefined) : Percent Effect value = 110.4%

The reported Percent Effect of the compound Cn1ncnc1-c1ccnc(NCc2ccccn2)n1 was -1.94%

Briefly, Percent Effect measured for Cn1cc(CCC(=O)NS(=O)(=O)N2CCCc3ccccc32)cn1 : -16.6%
